Listed here are binders together with their documented CRF2R EC50.
TARGET OR SYSTEM: T1, corticotropin releasing factor 2 receptor
T1 sequence (Q13324 whole entry, species assumed, looked up): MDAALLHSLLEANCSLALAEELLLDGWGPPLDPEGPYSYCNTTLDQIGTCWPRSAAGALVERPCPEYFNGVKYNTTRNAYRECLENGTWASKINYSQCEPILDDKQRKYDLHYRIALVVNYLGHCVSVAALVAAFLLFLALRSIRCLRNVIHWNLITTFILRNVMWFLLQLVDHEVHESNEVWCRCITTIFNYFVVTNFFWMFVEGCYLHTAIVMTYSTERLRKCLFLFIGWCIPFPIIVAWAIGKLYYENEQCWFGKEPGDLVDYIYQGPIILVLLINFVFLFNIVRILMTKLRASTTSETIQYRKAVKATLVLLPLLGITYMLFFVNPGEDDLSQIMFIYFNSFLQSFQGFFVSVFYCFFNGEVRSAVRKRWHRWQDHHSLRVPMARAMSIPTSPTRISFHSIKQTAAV
PROTOCOL NOTES: cell-based or functional assay
Ends that are not written are not given here.
MEASURED ATTRIBUTE: CRF2R EC50

BINDER | MEASURED ATTRIBUTE | VALUE OBSERVED
ZGPPISIDLPFQLLRKMIEIEKQEKEKQQATNNRLLLDTI (C-terminal amide) [SEQ ID NO 14] | CRF2R EC50 | 6.33 nM
IVLSLDVPIGLLQILLEQAKADAAREQATTNARILARV-NH2 [SEQ ID NO 131] | CRF2R EC50 | 5.25 nM
SQEPPISLDLPTHLLREVLEMTKADQLAQQAHSNRKLLDIA-NH2 [SEQ ID NO 99] | CRF2R EC50 | 100 nM
